molecular target: Human plasmin (Homo sapiens, UniProt P00747); construct: Human plasmin is purchased; purchased Boehringer Mannheim, Indianapolis, Ind; assay: Kass with plasmin, chromogenic substrate; assay type: biochemical; conditions: substrate H-D-Val-Leu-Lys-p-nitroanilide
Sequence (P00747 97-810): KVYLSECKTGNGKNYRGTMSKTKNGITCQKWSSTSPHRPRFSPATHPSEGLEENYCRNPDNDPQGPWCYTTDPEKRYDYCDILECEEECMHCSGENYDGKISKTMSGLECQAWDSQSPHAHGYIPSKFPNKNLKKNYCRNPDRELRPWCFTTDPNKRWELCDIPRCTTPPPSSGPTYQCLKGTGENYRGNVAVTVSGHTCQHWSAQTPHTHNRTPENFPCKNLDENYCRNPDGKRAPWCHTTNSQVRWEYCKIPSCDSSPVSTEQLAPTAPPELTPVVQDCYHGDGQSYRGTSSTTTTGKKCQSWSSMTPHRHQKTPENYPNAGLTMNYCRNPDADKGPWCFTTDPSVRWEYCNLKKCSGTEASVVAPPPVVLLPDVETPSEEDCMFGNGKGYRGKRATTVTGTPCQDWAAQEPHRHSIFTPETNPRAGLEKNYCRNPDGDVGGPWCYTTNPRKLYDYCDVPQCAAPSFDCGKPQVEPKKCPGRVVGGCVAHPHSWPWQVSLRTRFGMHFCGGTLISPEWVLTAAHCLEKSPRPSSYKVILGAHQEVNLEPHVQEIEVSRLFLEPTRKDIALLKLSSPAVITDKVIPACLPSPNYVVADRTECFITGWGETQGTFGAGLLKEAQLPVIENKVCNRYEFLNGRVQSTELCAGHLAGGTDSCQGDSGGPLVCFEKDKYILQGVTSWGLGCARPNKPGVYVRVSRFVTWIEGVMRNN
Sequence (P00747 97-580 partner limits assumed): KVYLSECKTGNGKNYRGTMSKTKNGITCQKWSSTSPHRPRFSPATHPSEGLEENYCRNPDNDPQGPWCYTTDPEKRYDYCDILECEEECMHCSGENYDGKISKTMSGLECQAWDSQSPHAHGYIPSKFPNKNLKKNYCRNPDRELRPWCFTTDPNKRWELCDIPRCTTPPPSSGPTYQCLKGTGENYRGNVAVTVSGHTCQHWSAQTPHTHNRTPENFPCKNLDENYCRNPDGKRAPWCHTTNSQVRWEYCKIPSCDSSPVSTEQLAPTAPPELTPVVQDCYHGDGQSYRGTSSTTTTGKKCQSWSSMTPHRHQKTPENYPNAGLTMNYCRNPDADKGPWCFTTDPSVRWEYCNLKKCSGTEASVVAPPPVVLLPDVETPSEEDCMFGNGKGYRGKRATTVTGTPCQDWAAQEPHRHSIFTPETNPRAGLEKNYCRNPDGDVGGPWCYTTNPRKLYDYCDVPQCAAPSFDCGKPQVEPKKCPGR
Structures can show the parent of a compound that is named as a salt.
readout-name: Kass Plasmin

compound=N=C(N)c1ccc(CCNC(=O)[C@@H]2CCCN2C(=O)[C@@H]2NCC[C@@H]3CCCC[C@@H]32)cc1 readout_name="Kass Plasmin" value_reported="< 0.001 × 10^6 (L/mole)"
compound="N=C(N)NC/C=C/CNC(=O)[C@@H]1CCCN1C(=O)[C@H](N)Cc1ccccc1 (relative stereo)" readout_name="Kass Plasmin" value_reported="0.0008 × 10^6 (L/mole)"
compound=CCS(=O)(=O)N[C@H](Cc1ccccc1)C(=O)N1CCC[C@H]1C(=O)NCCCc1ccc(C(=N)N)cc1 readout_name="Kass Plasmin" value_reported="< 0.001 × 10^6 (L/mole)"
compound=O=C(O)CN[C@H](CC1CCCCC1)C(=O)N1CCC[C@H]1C(=O)NCCCC1=CCNCC1 readout_name="Kass Plasmin" value_reported="< 0.001 × 10^6 (L/mole)"
compound="N=C(N)c1ccc(CNC(=O)[C@@H]2CCCN2C(=O)[C@H]2C[C@H]3CCCC[C@H]3CN2)cc1 [Example 19, D-3-Piq-Pro-p-NHCH2 C6 H4 C(NH)NH2.3HCl]" readout_name="Kass Plasmin" value_reported="0.16 × 10^6 (L/mole)"
compound="CCS(=O)(=O)N[C@H](CC1CCCCC1)C(=O)N1CCC[C@H]1C(=O)NCCCCNC(=N)N [Example 2, EtSO2 -D-Cha-Pro-Agm.HCl]" readout_name="Kass Plasmin" value_reported="0.045 × 10^6 (L/mole)"
compound="N=C(N)c1ccc(CNC(=O)[C@@H]2C[C@@H]3CCCC[C@@H]3N2C(=O)[C@H]2C[C@H]3CCCC[C@H]3CN2)cc1 (relative stereo)" readout_name="Kass Plasmin" value_reported="0.30 × 10^6 (L/mole)"
